tested on: T1, 4H968-bH
T1 chain: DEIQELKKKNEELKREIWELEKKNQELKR
experiment description: two-hybrid library CCNG1;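 also: natural log of median RNA to DNA barcode read ratio; higher means stronger binding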
# Lookup of reported interaction score keyed by entry
recorded metric: interaction score

>>> measured_value("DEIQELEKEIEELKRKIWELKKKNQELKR [4H112-bH]")
0.0767
>>> measured_value("DEIQELKKEIEELERKNWELKKKNQELER [4H575-bH]")
-1.01
>>> measured_value("DEIQELKKKIEELEREIWELKKENQELKR [4H780-bH]")
-0.28
>>> measured_value("DEIQELKKKNEELERKNWELKKEIQELER [4H953-bH]")
-1.63

All figures here come from paper PMC10397247.
